Tested on: A498
method_description: NCI tumour cell line growth inhibition, 48 h
The source made the active and inactive calls. Cut-off read from the data, not from the text of the source: active = GI50 up to about 1.1 µM and inactive = higher.
Form entry, call: pick from active, inactive

Known results for molecules:
# sample_smiles, answer_label
measured = [
    ("COc1ccc(CCCCl)c(C2=NCCc3ccccc32)c1", "inactive"),
    ("C/C1=C\\[C@H](C)C[C@H](C)OC(=O)[C@H](C)NC(=O)[C@@H](Cc2ccc(O)c(Br)c2)N(C)C(=O)[C@H](C)NC(=O)[C@@H](C)C1", "active"),
    ("CCOC(=O)c1nc2ccccc2nc1NCc1cc(OC)c(OC)c(OC)c1", "inactive"),
]

In the following, a different molecule is considered.
[Q] Write down the call the test reported for this molecule. Item: CO[C@H]1Nc2c(ccc(C)c2O)C(=O)N2C=C(/C=C/C(N)=O)C[C@@H]12
[A] active
